Data credit: ChEMBL document CHEMBL3433997

system name: Hexose transporter 1 (Plasmodium falciparum)
experiment: ST_JUDE_LEISH: Cytotoxicity at 2uM final concentration against transgenic Leishmania Mexicana promastigotes LmPfHT that are glucose transport deficient and complemented with the Plasmodium falciparum hexose transporter. Activity is measured by DNA content using SYBR green in vitro
Format: functional
Consider the following molecules; for each one, report its inhibition.
Express your answer in %, writing the number without its unit.

Which value of inhibition has been reported for `O=[N+]([O-])c1cccc(CNCC2CCN(Cc3ccc(C(F)(F)F)cc3)CC2)c1` in the records?
5.74

Which value of inhibition has been reported for COc1ccc(C(=O)CCC(=O)N(Cc2ccc(-c3ccc(CNCCc4ccccc4)cn3)cc2)C(C)CN(C)C)cc1F (centres undefined) in the records?
1.14

Which value of inhibition has been reported for `Cc1cc(N[C@@H](Cc2ccccc2)C(=O)NCCOc2ccccc2)nc(NCCOc2ccccc2)n1` in the records?
0.27

Which value of inhibition has been reported for `Cc1c(CNCCCNc2cc(=O)c3ccccc3[nH]2)sc(C(F)F)c1Br` in the records?
-0.4

Which value of inhibition has been reported for `O=C(/C=C/c1ccc(Cl)c(Cl)c1)NCCCCCN1CCC(NC(=O)c2ccc3ccccc3c2)CC1` in the records?
0.83

Which value of inhibition has been reported for `COc1cccc(OC)c1C(=O)N1CCC2(CC1)C(=O)N(CC(=O)NC1CCCCC1)CN2c1ccccc1` in the records?
4.45

Which value of inhibition has been reported for O=C(c1ccc(-c2ccc(-c3nc4ccccc4[nH]3)s2)cc1)N1CCCCC1CN1CCC(O)C1 (centres undefined) in the records?
2.95

Which value of inhibition has been reported for `CN1CCC(N(Cc2ccc(-c3cnc(NCc4ccccc4)nc3)cc2)S(=O)(=O)c2ccccc2)CC1` in the records?
12.1

Which value of inhibition has been reported for `O=C(Nc1cccc(-c2ccc(-c3nc4cc(C(F)(F)F)ccc4[nH]3)s2)c1)c1c[nH]cn1` in the records?
-0.45

Which value of inhibition has been reported for `CCc1nonc1NC(=O)c1oc2c(C)c(C)ccc2c1C` in the records?
5.3

Which value of inhibition has been reported for `CC(=O)N1N=C(c2ccccc2)Sc2c1nc(-c1ccc(Cl)cc1)n2C(C)=O` in the records?
1.41

Which value of inhibition has been reported for `COc1ccc(Cc2c(N)nc3nc(N)nc(N)c3c2C)cc1` in the records?
3.73

Which value of inhibition has been reported for `Cc1cccc2nc(-c3ccc(-c4cccc(CNCCN5CCNCC5)c4)cc3)[nH]c12` in the records?
8.32

Which value of inhibition has been reported for Cc1ccccc1C1CCN(C2CCC(NC(=O)c3cncc(-c4ccccc4)c3)CC2)CC1 (centres undefined) in the records?
6.33

Which value of inhibition has been reported for OC(CN1CCN(Cc2ccccc2)CC1)Cn1c(-c2ccccc2)c(-c2ccccc2)c2ccccc21 (centres undefined) in the records?
3.3

Which value of inhibition has been reported for `O=C(Nc1cccc(-c2csc(-c3nc4ccccc4[nH]3)c2)c1)c1ccncc1` in the records?
8.89

Which value of inhibition has been reported for `Cc1cc2c(cc1Cl)N(C(=O)Nc1cc(F)cc(-c3cncnc3)c1)CC2` in the records?
5

Which value of inhibition has been reported for `Cc1ccc(NC(=O)c2cc(Br)cc(N3CCCN(C)CC3)c2)cc1F` in the records?
0.36

Which value of inhibition has been reported for `Cc1ccccc1CCNC(=O)c1cnc(N2CCN(c3ccncc3)CC2)c(Cl)c1` in the records?
81.9
